Where do these numbers come from? They come from BindingDB's records for patent US11433071.

Biological target: Phosphatidylinositol 4,5-bisphosphate 3-kinase catalytic subunit delta isoform (Homo sapiens)
Sequence (O00329 whole entry): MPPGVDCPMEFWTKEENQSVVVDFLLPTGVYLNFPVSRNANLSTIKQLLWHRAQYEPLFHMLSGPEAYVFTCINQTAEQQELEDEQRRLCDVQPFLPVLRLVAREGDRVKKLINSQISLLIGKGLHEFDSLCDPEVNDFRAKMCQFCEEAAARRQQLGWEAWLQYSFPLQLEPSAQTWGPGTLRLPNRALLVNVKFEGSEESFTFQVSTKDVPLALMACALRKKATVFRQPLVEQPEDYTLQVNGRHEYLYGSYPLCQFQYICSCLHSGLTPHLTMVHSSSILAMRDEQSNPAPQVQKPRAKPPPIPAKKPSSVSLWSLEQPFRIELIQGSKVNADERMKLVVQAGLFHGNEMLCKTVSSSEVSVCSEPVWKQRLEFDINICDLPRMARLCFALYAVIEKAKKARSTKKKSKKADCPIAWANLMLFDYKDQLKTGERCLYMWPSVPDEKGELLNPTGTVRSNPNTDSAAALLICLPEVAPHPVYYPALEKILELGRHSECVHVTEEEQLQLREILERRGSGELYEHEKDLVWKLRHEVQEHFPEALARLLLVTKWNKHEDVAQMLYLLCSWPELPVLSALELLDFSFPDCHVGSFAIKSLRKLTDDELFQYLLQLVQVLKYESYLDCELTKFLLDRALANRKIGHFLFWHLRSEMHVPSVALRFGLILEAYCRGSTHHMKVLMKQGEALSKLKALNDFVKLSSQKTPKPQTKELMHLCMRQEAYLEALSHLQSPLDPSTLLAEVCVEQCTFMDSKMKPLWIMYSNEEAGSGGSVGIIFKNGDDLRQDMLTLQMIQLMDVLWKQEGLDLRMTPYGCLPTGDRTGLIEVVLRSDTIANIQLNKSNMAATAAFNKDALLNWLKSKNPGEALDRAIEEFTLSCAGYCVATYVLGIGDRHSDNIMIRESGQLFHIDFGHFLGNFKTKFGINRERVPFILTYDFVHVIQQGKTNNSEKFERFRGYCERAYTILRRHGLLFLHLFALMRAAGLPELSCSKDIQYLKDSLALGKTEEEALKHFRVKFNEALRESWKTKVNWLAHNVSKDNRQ
Test: PI3K Enzyme Assay
recorded metric: IC50

Suppose we examine the molecule COc1c([C@@H](C)n2cc(C)c(=O)c3c(N)ncnc32)cc(Cl)c(C)c1-c1ccc(C[C@H](C)O)nc1 ; what IC50 value has been reported?
> 500 nM
